target: antibody P1; assay: peptide competition ELISA; competitor for P1
Recorded IC50 by entry

EPVELTSA [nearest-neighbor 8-mer EPVELTSA]    > 1 mM

Now for a further binder.
Need IC50 of DPTQLTDA [nearest-neighbor 8-mer DPTQLTDA] , thanks.
> 1 mM
